Data provenance is patent US11819572B2.

- procedureDetails: in vivo
- experimentalContext: male, beagle, dog, iv, 1.5 mg/kg
quantityKind: AUC(0-t) (ng·h/mL)

1. CCCCN1CCCCC1C(=O)Nc1c(C)cccc1C (stereo not shown) [free bupivacaine, bupivacaine] :: 1320

###

- procedureDetails: Bupivacaine plasma pharmacokinetics after intra-arterial (IA) administration in Beagle dogs
- Format: in vivo
- experimentalContext: Beagle dog plasma bupivacaine, 0.1 mg/kg, Male, Day 1, mean
quantityKind: AUC(0-t) (ng·h/mL)

1) CCCCN1CCCCC1C(=O)Nc1c(C)cccc1C (stereo not shown) [free bupivacaine, bupivacaine] :: 71.1

###

- procedureDetails: Bupivacaine plasma pharmacokinetics after intra-arterial (IA) administration in Beagle dogs
- Format: in vivo
- experimentalContext: Beagle dog plasma bupivacaine, 0.1 mg/kg, Male, Day 1, mean
quantityKind: half-life (min)

1. CCCCN1CCCCC1C(=O)Nc1c(C)cccc1C (stereo not shown) [free bupivacaine, bupivacaine] :: 15.8

###

- procedureDetails: Bupivacaine plasma pharmacokinetics after intra-arterial (IA) administration in Beagle dogs
- Type: in vivo
- experimentalContext: Beagle dog plasma bupivacaine, 0.1 mg/kg, Female, Day 1, mean
- Method: b) Intra-Arterial Administration to Beagle Dogs of (a) Bupivacaine and (b) EXPAREL®: The study was conducted in a manner analogous to the intravenous administration study described in a) above.
quantityKind: AUC(0-t) (ng·h/mL)

1. CCCCN1CCCCC1C(=O)Nc1c(C)cccc1C (stereo not shown) [free bupivacaine, bupivacaine] :: 62.6

###

- procedureDetails: in vivo
- experimentalContext: male, beagle, dog, iv, 1.5 mg/kg
quantityKind: Cmax (ng/mL)

1) CCCCN1CCCCC1C(=O)Nc1c(C)cccc1C (stereo not shown) [free bupivacaine, bupivacaine] :: 2750
